Tested on: DU-145
Test method notes: Growth inhibition of human DU145 cells after 96 hrs by trypan blue exclusion assay
Type: functional
Settings: DU-145, 96 h
Readout type: GI50 (µM)

The cases that follow already have their GI50 on record.
Cc1ccc(CS/C(=C/c2c[nH]c3ccc(Br)cc23)C(=O)c2ccc(Cl)cc2)cc1
1
O=C(/C(=C\c1ccccc1OCc1ccccc1)Sc1ccc(Br)cc1)c1ccc(Cl)cc1
10
Cc1ccc(CS/C(=C/c2ccc(F)c([N+](=O)[O-])c2)C(=O)c2ccc(Cl)c([N+](=O)[O-])c2)cc1
1

a: CCOc1ccc(/C=C(/SCc2ccc(F)cc2)C(=O)c2ccc(Cl)cc2)cc1OC
b: Cc1cc(C)cc(/C=C(/Sc2ccc(Br)cc2)C(=O)c2ccc(Cl)cc2)c1
c: Cc1ccc(S(=O)(=O)/C(=C/c2sccc2C)C(=O)c2ccc(Br)cc2)cc1
[ask] Arrange items by their GI50 values in increasing order. Could you list the labels in the order requested?
[reply] a, b, c
(a: 1 µM, b: 10 µM, c: 25 µM)

###

Target or test system: Bcr/Abl fusion protein (Homo sapiens, UniProt P00519)
Sequence (P00519 whole entry, the tested form may be a part): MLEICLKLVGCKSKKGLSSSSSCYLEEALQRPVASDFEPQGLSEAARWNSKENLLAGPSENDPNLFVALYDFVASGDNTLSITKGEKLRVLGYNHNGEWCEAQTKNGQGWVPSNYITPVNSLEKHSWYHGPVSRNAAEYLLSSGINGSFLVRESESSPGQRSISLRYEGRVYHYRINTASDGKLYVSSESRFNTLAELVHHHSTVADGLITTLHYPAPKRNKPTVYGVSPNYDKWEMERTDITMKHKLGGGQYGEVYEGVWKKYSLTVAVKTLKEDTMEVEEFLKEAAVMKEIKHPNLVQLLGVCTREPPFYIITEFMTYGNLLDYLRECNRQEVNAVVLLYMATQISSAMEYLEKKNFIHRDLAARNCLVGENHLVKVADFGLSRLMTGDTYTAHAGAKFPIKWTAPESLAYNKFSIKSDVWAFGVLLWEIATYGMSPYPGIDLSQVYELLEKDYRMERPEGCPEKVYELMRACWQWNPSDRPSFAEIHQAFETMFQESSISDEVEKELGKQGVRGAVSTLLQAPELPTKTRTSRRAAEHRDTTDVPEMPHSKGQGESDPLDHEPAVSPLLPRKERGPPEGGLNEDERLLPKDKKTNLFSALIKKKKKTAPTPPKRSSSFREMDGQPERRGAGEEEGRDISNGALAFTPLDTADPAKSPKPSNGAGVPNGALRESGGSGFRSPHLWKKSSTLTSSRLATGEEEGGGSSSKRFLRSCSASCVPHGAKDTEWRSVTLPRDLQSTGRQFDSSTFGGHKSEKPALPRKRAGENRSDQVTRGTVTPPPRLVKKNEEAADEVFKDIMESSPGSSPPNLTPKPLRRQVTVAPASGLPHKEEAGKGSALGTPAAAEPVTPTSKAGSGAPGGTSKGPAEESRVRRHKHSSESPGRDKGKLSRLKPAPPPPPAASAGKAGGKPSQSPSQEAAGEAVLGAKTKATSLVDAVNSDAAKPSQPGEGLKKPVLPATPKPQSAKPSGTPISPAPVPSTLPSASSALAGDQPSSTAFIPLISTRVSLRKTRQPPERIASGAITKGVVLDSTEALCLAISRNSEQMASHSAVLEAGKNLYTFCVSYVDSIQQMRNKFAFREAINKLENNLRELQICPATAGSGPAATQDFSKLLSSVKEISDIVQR
Sequence (P11274 whole entry, further chain, the tested form may be a part): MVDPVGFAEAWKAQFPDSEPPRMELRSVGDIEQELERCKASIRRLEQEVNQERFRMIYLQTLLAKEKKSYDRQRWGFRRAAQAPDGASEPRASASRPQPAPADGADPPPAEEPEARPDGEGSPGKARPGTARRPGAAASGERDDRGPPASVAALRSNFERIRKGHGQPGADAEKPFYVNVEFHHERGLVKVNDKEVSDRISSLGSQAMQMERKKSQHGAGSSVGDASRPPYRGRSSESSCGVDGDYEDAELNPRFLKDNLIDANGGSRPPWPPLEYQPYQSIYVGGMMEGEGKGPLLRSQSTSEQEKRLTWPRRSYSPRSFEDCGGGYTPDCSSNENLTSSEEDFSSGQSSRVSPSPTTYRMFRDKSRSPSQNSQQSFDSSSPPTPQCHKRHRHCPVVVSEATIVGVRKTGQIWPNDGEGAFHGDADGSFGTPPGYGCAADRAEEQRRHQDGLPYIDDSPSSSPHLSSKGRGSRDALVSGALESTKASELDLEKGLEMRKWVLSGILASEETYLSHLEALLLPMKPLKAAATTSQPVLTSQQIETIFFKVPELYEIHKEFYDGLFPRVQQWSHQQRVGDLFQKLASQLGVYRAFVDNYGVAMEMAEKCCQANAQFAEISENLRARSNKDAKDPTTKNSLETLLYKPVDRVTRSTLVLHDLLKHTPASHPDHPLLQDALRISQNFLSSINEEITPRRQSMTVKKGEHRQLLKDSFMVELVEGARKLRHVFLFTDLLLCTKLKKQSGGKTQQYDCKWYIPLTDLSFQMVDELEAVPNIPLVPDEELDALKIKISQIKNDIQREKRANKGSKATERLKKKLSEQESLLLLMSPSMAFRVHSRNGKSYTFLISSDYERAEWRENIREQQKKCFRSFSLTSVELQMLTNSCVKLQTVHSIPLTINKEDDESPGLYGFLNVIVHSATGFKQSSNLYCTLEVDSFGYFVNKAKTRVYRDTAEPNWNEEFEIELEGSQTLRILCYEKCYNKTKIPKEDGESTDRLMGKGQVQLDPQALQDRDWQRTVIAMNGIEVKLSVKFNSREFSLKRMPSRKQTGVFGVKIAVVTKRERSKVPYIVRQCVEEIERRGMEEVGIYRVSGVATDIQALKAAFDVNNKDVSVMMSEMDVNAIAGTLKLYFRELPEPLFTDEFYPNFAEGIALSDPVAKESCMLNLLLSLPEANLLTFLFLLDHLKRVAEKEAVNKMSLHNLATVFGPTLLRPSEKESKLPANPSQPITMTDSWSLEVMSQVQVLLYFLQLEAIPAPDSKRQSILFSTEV
Test method notes: Inhibition of Bcr-Abl after 20 mins by autoradiography
Assay type: protein assay
Readout type: pIC50
Please keep in mind that pIC50 is minus log10 of the molar concentration; only the number is needed.

Recorded pIC50 (compound `O=C(O)c1ccc(C(=O)/C(=C\c2ccc(F)c([N+](=O)[O-])c2)SCc2ccc(Br)cc2)cc1` ): 6.12

###

Tested on: DU-145
Test method notes: Growth inhibition of human DU145 cells after 96 hrs by trypan blue exclusion assay
Assay type: functional
Settings: DU-145, 96 h
Readout type: GI50 (µM)

Consider the following illustrative entries.
O=C(/C(=C\c1ccc(O)cc1)SCc1ccc(Cl)cc1)c1ccc(Br)cc1
10
Cc1ccc(S/C(=C/c2c[nH]c3ccc(Cl)cc23)C(=O)c2ccc(Br)cc2)cc1
1
O=C(O)c1ccc(C(=O)/C(=C\c2ccc(Br)c([N+](=O)[O-])c2)SCc2ccc(F)cc2)cc1
1
O=C(/C(=C\c1ccccc1OCc1ccccc1)S(=O)(=O)c1ccc(Br)cc1)c1ccc(Cl)cc1
1
O=C(/C(=C\c1ccc(O)c(Br)c1)Sc1ccc(Br)cc1)c1c(F)c(F)c(F)c(F)c1F
1

1: O=C(/C(=C\c1ccc(I)cc1)S(=O)(=O)c1ccc(Br)cc1)c1ccc(Br)cc1
2: Cc1ccc(CS(=O)(=O)/C(=C/c2cc(C)cc(C)c2)C(=O)c2ccc(Cl)cc2)cc1
3: CCOc1ccc(/C=C(/SCc2ccc(C)cc2)C(=O)c2ccc(Cl)cc2)cc1OC
[ask] Your job: order these 3 records by GI50, ascending. Would you mind listing the labels in the order asked for?
[reply] 1, 2, 3

###

Test system: DU-145
Test method notes: Growth inhibition of human DU145 cells after 96 hrs by trypan blue exclusion assay
Type: functional
Settings: DU-145, 96 h
Readout type: GI50 (µM)

O=C(/C(=C\c1ccc(O)cc1)SCc1ccc(Cl)c(Cl)c1)c1ccc(Cl)cc1
1
COc1cc(OC)c(/C=C(\C(=O)c2ccc(Br)cc2)S(=O)(=O)Cc2ccc(Cl)cc2)c(OC)c1
25
Cc1ccc(/C=C(\C(=O)c2ccc([N+](=O)[O-])cc2)S(=O)(=O)Cc2ccc(Cl)cc2)s1
25
O=C(/C(=C\c1ccc([N+](=O)[O-])c(O)c1)SCc1ccc(Br)cc1)c1ccc(Br)cc1
10

1: O=C(/C(=C\c1ccc(F)c([N+](=O)[O-])c1)S(=O)(=O)c1ccc(Br)cc1)c1ccc(Br)cc1
2: Cc1ccsc1/C=C(/SCc1ccc(F)cc1)C(=O)c1ccc(Br)cc1
3: Cc1ccc(CS/C(=C/c2c[nH]c3ccc(Cl)cc23)C(=O)c2ccc(Cl)cc2)cc1
[ask] Exam item: list the entries in increasing order of GI50. Respond with the label ranking, as requested.
[reply] 3, 1, 2

###

Tested on: DU-145
Test method notes: Growth inhibition of human DU145 cells after 96 hrs by trypan blue exclusion assay
Type: functional
Settings: DU-145, 96 h
Readout type: GI50

Would you please look over these solved cases?
Cc1ccc(S/C(=C/c2ccc(C)s2)C(=O)c2ccc(Br)cc2)cc1
> 100 µM
CN(C)c1ccc(/C=C(/SCc2ccc(Cl)cc2)C(=O)c2ccc([N+](=O)[O-])cc2)cc1
> 100 µM

Now turn to the next molecule.
The molecule identified as `Cc1ccc(S/C(=C/c2c(O)cc(O)cc2O)C(=O)c2ccc(Cl)cc2)cc1` registered its GI50 at > 100 µM

###

Test system: DU-145
Test method notes: Growth inhibition of human DU145 cells after 96 hrs by trypan blue exclusion assay
Type: functional
Settings: DU-145, 96 h
Readout type: GI50 (µM)

The examples below pair each entry with its known result.
O=C(/C(=C\c1ccccc1OCc1ccccc1)SCc1ccc(Cl)c(Cl)c1)c1ccc(Cl)cc1
10
COc1cc(OC)c(/C=C(\C(=O)c2ccc(Cl)cc2)S(=O)(=O)Cc2ccc(F)cc2)c(OC)c1
25
Cc1ccsc1/C=C(\C(=O)c1ccc(Cl)cc1)S(=O)(=O)Cc1ccc(Cl)cc1
25
COc1ccc(/C=C(\C(=O)c2ccc(Br)cc2)S(=O)(=O)c2ccc(Br)cc2)cc1
25
O=C(/C(=C\c1ccc(OCc2ccccc2)cc1)S(=O)(=O)Cc1ccc(Cl)cc1)c1ccc(Cl)cc1
1
Cc1ccc(S/C(=C/c2c[nH]c3ccc(Br)cc23)C(=O)c2ccc(Cl)cc2)cc1
1

P: Cc1ccc(CS(=O)(=O)/C(=C/c2ccc(Cl)cc2)C(=O)c2ccc(Cl)cc2)cc1
Q: Cc1ccc(S(=O)(=O)/C(=C/c2ccc(Br)cc2)C(=O)c2ccc(Br)cc2)cc1
[ask] Compare P and Q and name the one whose reported GI50 is smaller. Which one? Tell me its label.
[reply] Q
(Q: 10 µM, P: 25 µM)

1: O=C(/C(=C\c1ccc(Cl)cc1)SCc1ccc(F)cc1)c1ccc(Cl)cc1
2: Cc1ccc(C)c(/C=C(\C(=O)c2ccc(Cl)cc2)S(=O)(=O)c2ccc(Br)cc2)c1
3: COc1ccc(/C=C(/Sc2ccc(C)cc2)C(=O)c2ccc(Br)cc2)cc1
4: O=C(/C(=C\c1c[nH]c2ccccc12)S(=O)(=O)c1ccc(Br)cc1)c1ccc(Br)cc1
[ask] Sequence the entries by GI50, beginning with the highest number. Labels, ranked as asked.
[reply] 3, 4, 1, 2
(3: 50 µM, 4: 25 µM, 1: 10 µM, 2: 1 µM)

a: CSc1ccc(/C=C(/SCc2ccc(Br)cc2)C(=O)c2ccc(C(=O)O)cc2)cc1
b: O=C(/C(=C\c1ccc(O)cc1O)Sc1ccccc1Br)c1ccc(Br)cc1
[ask] Pick one, a or b : lowest reported GI50. When you have decided, please share the label of that item.
[reply] a
(a: 10 µM, b: 50 µM)

a: Cc1ccc(CS(=O)(=O)/C(=C/c2ccccc2OCc2ccccc2)C(=O)c2ccc(Cl)cc2)cc1
b: CSc1ccc(/C=C(\C(=O)c2ccc(Br)cc2)S(=O)(=O)Cc2ccc(C)cc2)cc1
c: Cc1ccc(/C=C(\C(=O)c2ccc(Cl)cc2)S(=O)(=O)Cc2ccc(F)cc2)s1
d: O=C(/C(=C\c1ccc(O)c([N+](=O)[O-])c1)Sc1ccccc1Br)c1ccc(Cl)cc1
[ask] Sort (4 compounds) by GI50: min first. List each label, following the requested order.
[reply] a, b, d, c
(a: 1 µM, b: 10 µM, d: 25 µM, c: 50 µM)

A: Cc1cc(C)cc(/C=C(\C(=O)c2ccc(Cl)cc2)S(=O)(=O)Cc2ccc(Cl)cc2)c1
B: Cc1ccc(S/C(=C/c2ccc(Oc3ccccc3)cc2)C(=O)c2ccc(Cl)cc2)cc1
C: Cc1ccc(S/C(=C/c2ccc(-c3ccccc3)cc2)C(=O)c2ccc(Cl)cc2)cc1
[ask] Ascending by GI50, please: list the compounds accordingly. Provide the labels, sequenced as the question asks.
[reply] A, B, C
(A: 1 µM, B: 10 µM, C: 50 µM)

I: COc1ccc(/C=C(\C(=O)c2ccc(Br)cc2)S(=O)(=O)c2ccc(C)cc2)cc1
II: O=C(/C(=C\c1ccc(Oc2ccccc2)cc1)Sc1ccc(Br)cc1)c1ccc(Br)cc1
[ask] Decide: I or II , by lowest recorded GI50. The response must carry the label of the picked entry.
[reply] I

1: Cc1ccc(C)c(/C=C(\C(=O)c2ccc(Br)cc2)S(=O)(=O)Cc2ccc(F)cc2)c1
2: CSc1ccc(/C=C(\C(=O)c2ccc(Cl)cc2)S(=O)(=O)Cc2ccc(Cl)cc2)cc1
[ask] # return whichever of 1 and 2 has the smaller GI50 Respond with the label that goes with your answer.
[reply] 1
(1: 1 µM, 2: 10 µM)

###

System: DU-145
Test method notes: Growth inhibition of human DU145 cells after 96 hrs by trypan blue exclusion assay
Type: functional
Settings: DU-145, 96 h
Readout type: GI50 (µM)

1: Cc1ccc(CS(=O)(=O)/C(=C/c2ccc(S(C)(=O)=O)cc2)C(=O)c2ccc(Br)cc2)cc1
2: O=C(/C(=C\c1ccc(F)c([N+](=O)[O-])c1)SCc1ccc(F)cc1)c1ccc(SCc2ccc(F)cc2)c([N+](=O)[O-])c1
3: CCOc1ccc(/C=C(\C(=O)c2ccc(Cl)cc2)S(=O)(=O)c2ccc(C)cc2)cc1OC
[ask] Please list these in order of increasing GI50. Thank you! Please, when replying, give the labels in the order that was requested.
[reply] 3, 1, 2
(3: 1 µM, 1: 10 µM, 2: 25 µM)
